The reported numbers originate from patent US20120302569A1.

measured_target: proMMP9(20-445;ΔFnII) (SEQ ID NO:6) (Homo sapiens, UniProt P14780, DEL216-390)
Construct: start methionine (N)
Sequence (P14780 with tags, fused parts or gaps DEL216-390): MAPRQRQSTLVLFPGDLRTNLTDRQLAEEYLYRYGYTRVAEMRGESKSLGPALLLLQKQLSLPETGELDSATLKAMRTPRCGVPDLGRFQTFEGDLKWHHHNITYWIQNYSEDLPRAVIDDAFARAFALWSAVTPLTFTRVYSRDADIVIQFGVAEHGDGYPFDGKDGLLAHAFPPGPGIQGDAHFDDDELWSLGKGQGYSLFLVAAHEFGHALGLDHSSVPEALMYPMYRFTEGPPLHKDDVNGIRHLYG
experimental_protocol: ThermoFluor with proMMP9(20-445;ΔFnII)
stated_conditions: read-out: proMMP9(20-445; ΔFnII) (SEQ ID NO: 6) binding
pKd: −log10 of the molar value.
reported_property: pKd

Worked examples follow.
NS(=O)(=O)c1ccc(OC(F)(F)F)c(Nc2nc(-c3ccc(OCCN4CCC(F)CC4)cc3)cs2)c1	6.48
CC(C)Oc1ccc(C(N)=O)cc1Nc1nc(-c2ccc(N3CCNCC3)cc2)cs1	7.89
CC(C)Oc1ccc(S(N)(=O)=O)cc1Nc1nc(-c2ccc(CN3CC[C@@H](F)C3)cc2)cs1	7.24
COc1cc(C)c(C(N)=O)cc1Nc1nc(-c2ccc(OCCN3CCC(F)CC3)cc2)cs1	6.26
CC(C)Oc1ccc(C(N)=O)cc1Nc1nc(-c2ccc(CN3CCN(C(C)C)CC3)cc2)cs1	7.74

[a] COc1ccc(F)cc1Nc1nc(-c2ccc(CN3CCOCC3)cc2)cs1
[b] CC(C)Oc1ccc(C(N)=O)cc1Nc1nc(-c2ccc(OCCCN3CCOCC3)cc2)cs1
[c] CC(C)Oc1ccc(S(N)(=O)=O)cc1Nc1nc(-c2ccc(OCCN3CCC(F)(F)CC3)cc2)cs1
[d] CCOc1ccncc1Nc1nc(-c2ccc(C3=CCNCC3)cc2)cs1
[e] CC(C)Cc1ccc(C(N)=O)cc1Nc1nc(-c2ccc(OCCN3CCC(F)CC3)cc2)cs1
Let's sort these by pKd, smallest first. Go ahead? # the answer lists labels in the order requested a, d, e, c, b
(a: 4.32, d: 6.42, e: 6.72, c: 7.12, b: 7.70)

[P] CC(C)Oc1ccc(S(N)(=O)=O)cc1Nc1nc(-c2ccc(CN3CCC(F)CC3)cc2)cs1
[Q] CC(C)Oc1ccc(S(N)(=O)=O)cc1Nc1nc(-c2ccc(C3=CCN(C(C)C)CC3)cc2)cs1
Which entry has a larger number for pKd, P or Q ? Write down the label of the entry you select. Q

[A] CC(C)Oc1ccc(C(N)=O)cc1Nc1nc(-c2ccc(OCCN3CCOCC3)cc2)cs1
[B] CCN1CCN(c2ccc(-c3csc(Nc4cc(S(N)(=O)=O)ccc4OC(C)C)n3)cc2)CC1
Given A and given B , which shows the smaller recorded pKd? Write down the label of the entry you select. B
(B: 6.96, A: 7.55)

---

measured_target: proMMP9(20-445;ΔFnII) (SEQ ID NO:6) (Homo sapiens, UniProt P14780, DEL216-390)
Construct: start methionine (N)
Sequence (P14780 with tags, fused parts or gaps DEL216-390): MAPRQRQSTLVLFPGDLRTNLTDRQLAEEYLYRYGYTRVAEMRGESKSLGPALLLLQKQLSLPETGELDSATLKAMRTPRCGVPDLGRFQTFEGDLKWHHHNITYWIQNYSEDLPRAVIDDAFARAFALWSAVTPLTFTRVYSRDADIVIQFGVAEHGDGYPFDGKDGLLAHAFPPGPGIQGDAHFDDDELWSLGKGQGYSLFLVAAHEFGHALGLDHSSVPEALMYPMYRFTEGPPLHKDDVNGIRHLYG
experimental_protocol: ThermoFluor with proMMP9(20-445;ΔFnII)
stated_conditions: read-out: proMMP9(20-445; ΔFnII) (SEQ ID NO: 6) binding
pKd: −log10 of the molar value.
reported_property: pKd

CC(C)Oc1ccc(S(N)(=O)=O)cc1Nc1nc(-c2ccc(N3CCN(C)CC3)cc2)cs1	7.06
CC(C)Oc1ccc(C(N)=O)cc1Nc1nc(-c2ccc(N3CCN(C(C)C)CC3)cc2)cs1	7.77

[P] CC(C)Oc1ccc(S(N)(=O)=O)cc1Nc1nc(-c2ccc(OCCN3CCC(F)CC3)cc2)cs1
[Q] CC(C)Oc1ccc(S(N)(=O)=O)cc1Nc1nc(-c2ccc(CN3CCOCC3)cc2)cs1
[R] CCN1CCN(c2ccc(-c3csc(Nc4cc(C(N)=O)ccc4OC(C)C)n3)cc2)CC1
Could you please sort these 3 entries by pKd from high to low? # the answer lists labels in the order requested P, R, Q
(P: 7.68, R: 7.47, Q: 7.01)
